- System: SNB-75 CNS
- measurement_description: NCI-60 one-dose screen, 48 h
- experimental_parameters: 10 µM unless noted
The panel holds about 83,000 compounds, 20% with a hit somewhere; the sample as a whole holds those more often. Calls of active or inactive are those of the source. The calls were made as follows: active = growth percent below 10; inactive = the rest.
In this exercise, the only acceptable responses are active, inactive

Just curious, what result did CCN(CCCOc1ccc2c(Nc3cc(CC(=O)Nc4cccc(F)c4)[nH]n3)ncnc2c1)CCOP(=O)(O)O get here?
inactive

Check the results log: what was the call for COc1cc2c(cc1OCCCCN1CCN(CC(=O)Nc3ccc(Cl)cc3C(=O)c3ccccc3Cl)CC1)N=CC1CCCN1C2=O (stereo not given) ?
active

Can you look up the reported call for O=c1sn(-c2cccc3ccccc23)c(=O)n1Cc1ccccc1 for me?
inactive

Entry CC(C)(C)C(=O)OCOP(=O)(OCOC(=O)C(C)(C)C)C1CCCN(OC(=O)c2ccccc2)C1=O (stereo not given) : call = ?
inactive

Assay result, entry COc1c(C(NC(=O)c2ccccc2)c2sccc2C)cc(Cl)c2cccnc12 (stereo not given) — outcome?
inactive
